assay: Plasmodium falciparum growth inhibition, primary screen, strain 3D7, DAPI fluorescence, 100 nL (AID 1184);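 note: parasites grown inside human red blood cells in medium with human serum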; settings: P. falciparum 3D7 growth, 3 d, higher = more signal
Reported z-score values follow for various compounds
Enter a number only.

Example entries and their recorded answers appear below.
CPD SMILES	QUANTITY NAME	RECORDED VALUE
CC(C)=NOCc1ccc(-c2cc(-c3ccccc3)no2)cc1	z-score	0.382
CO[C@H]1O[C@H](CO)[C@@H](OC(=O)Nc2ccc3c(c2)OCO3)[C@H](OC(=O)Nc2ccccc2-c2ccccc2)[C@@H]1OC(=O)Nc1ccccc1-c1ccccc1	z-score	-2.6
CC[C@@H](c1ccccc1)n1c(=O)n2n(c1=O)[C@H]1[C@H](O)[C@@H]3O[C@@H]3C(=NOCC=C(C)CCC=C(C)C)[C@H]1CC2	z-score	-0.444

Pending compound:
**Q:** Read the entry COCCCNC(=O)[C@@]1(Sc2ccc(C)cc2)CC(=O)N(Cc2ccccc2)[C@@H]1c1ccc(CO)cc1I and write its reported z-score.
**A:** -0.0893

----------
experiment: COS7 lysate on small-molecule microarray, probe aHis, 635 nm (AID 1123); conditions: COS7 cell lysate, fluorescence, higher = more signal;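 note: z-score combines 667nm fluorescence intensity with signal-to-noise per printed compound spot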
// Condition not met strictly below 1 in composite z-score; Condition met otherwise

COMPOUND	CATEGORY
COc1ccc([Si](C)(C)[C@H]2[C@H](CCO)O[C@@]3(C(=O)N(Cc4cccc(NC(=O)[C@H](C)O)c4)c4ccccc43)[C@@H]2C)cc1	Condition met

**Q:** Please check the record C[C@H]1CC[C@@H](C(=O)O)N[C@@H]1c1ccc(C#CCN(C)C)cc1 and state if its composite z-score is at or above 1.
**A:** Condition not met

----------
test: PSAC antagonists in infected red cells, primary screen, cell-based, P. falciparum Indochina, OD700, 18 h (AID 1157); conditions: P. falciparum Indochina infected erythrocytes, osmotic lysis OD700, 18 h; higher = more signal, called active from +8 up or from −8 down
Reported z-score values follow for various compounds
Enter a number only.

COMPOUND	RECORDED VALUE
COC(=O)c1c(CC[C@@H](CO)NC(=O)N[C@H](Cc2ccccc2)Cn2cc(-c3ccccc3N)nn2)oc(C(C)=O)c1C(=O)OC	1.73

**Q:** Read the entry CN(C)CCCNC(=O)[C@@H]1c2ccccc2C(=O)N(Cc2cc(F)cc(C(F)(F)F)c2)[C@H]1c1ccc(CO)cc1 and write its reported z-score.
**A:** 0.745

**Q:** Read the entry O=C1O[C@@H](c2ccccc2)[C@@H](c2ccccc2)N2[C@@H](c3ccc(OCCO)cc3)[C@]3(C(=O)Nc4ccccc43)[C@@H](C(=O)N3CCN(c4ncccn4)CC3)[C@H]12 and write its reported z-score.
**A:** 1.28

**Q:** Read the entry CC1CC/C=C\[C@H]2OC34C=CCN(C(C)C)C(=O)[C@H]3N(CCCO)C(=O)[C@@H]4C2C(=O)O1 (stereo partly specified) and write its reported z-score.
**A:** -0.207

**Q:** Read the entry O=C1[C@H]2[C@H]3[C@H](O)[C@H](O)CC(=NO[C@@H]4O[C@H](CO)[C@@H](O)[C@H](O)[C@H]4O)[C@H]3CC[C@H]2C(=O)N1Cc1ccc2c(c1)OCO2 and write its reported z-score.
**A:** 1.04

**Q:** Read the entry CC(CCC(=O)OC[C@H]1O[C@H](C#Cc2ccccc2)C=C[C@@H]1Oc1ccc(C)cc1)=NOC[C@@H](O)[C@H]1O[C@@H]2OC(C)(C)O[C@@H]2[C@H]1O and write its reported z-score.
**A:** 1.05

----------
target: Dickkopf-related protein 1 (Homo sapiens) (UniProt O94907); test: DKK1 binders on small-molecule microarrays, primary screen, biochemical, small-molecule microarray, 635 nm fluorescence scan (AID 1106); conditions: DKK1 binding, higher = more signal;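 note: score merges emission near 667 nm with signal to noise over three replicate slides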
Sequence (O94907 whole entry, looked up): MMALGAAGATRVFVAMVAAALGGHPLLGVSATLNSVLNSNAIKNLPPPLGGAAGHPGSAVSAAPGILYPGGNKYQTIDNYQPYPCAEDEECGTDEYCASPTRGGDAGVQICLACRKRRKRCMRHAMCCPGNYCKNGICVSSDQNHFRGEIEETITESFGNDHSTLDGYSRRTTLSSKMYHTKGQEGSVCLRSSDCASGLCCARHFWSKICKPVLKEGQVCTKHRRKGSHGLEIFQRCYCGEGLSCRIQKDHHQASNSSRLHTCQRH
// Condition not met strictly below 0.2 in composite z-score; Condition met otherwise

Would you please look over these solved cases?
COMPOUND	CATEGORY
COc1cccc([C@@H]2Oc3ccc(Br)cc3C(=O)[C@H]2O)c1	Condition met
CC(CCN1CCc2nc(-c3ccccc3)c(-c3ccccc3)cc2C1)=NO[C@@H](C)c1cn([C@H](CO)Cc2ccccc2)nn1	Condition not met
CC(CCC(=O)OC[C@H]1O[C@H](C#Cc2ccccc2)C=C[C@@H]1Oc1ccc(C)cc1)=NO[C@@H](C)c1cn([C@H](CO)Cc2ccccc2)nn1	Condition met
CCc1cc2c(nc1CC)CCN(CCC(C)=NO[C@@H](C)c1cc(-c3c(C)cc(C)cc3C)no1)C2	Condition not met
CN1C(=O)[C@@]2(CCC(=O)OC(C)(C)C)N=C(c3ccc(OCCCO)cc3)O[C@H]2c2ccccc21	Condition not met
CC(=O)OC[C@H]1O[C@H](CCON=C[C@@H](C)[C@H](OCc2ccccc2)C(C)C)C=C[C@@H]1OC(C)=O	Condition met

**Q:** Please check the record Cc1ccc(S(=O)(=O)N[C@@H]2COC(=O)[C@H](C)COC(=O)CC=C[C@H]2C)cc1 and state if its composite z-score is at or above 0.2.
**A:** Condition met

**Q:** Please check the record C[C@@H](c1ccccc1)N1C(=O)[C@H]2[C@H]3[C@H](O)[C@H](O)CC(=NNC(=O)OCc4ccccc4)[C@H]3CC[C@H]2C1=O and state if its composite z-score is at or above 0.2.
**A:** Condition not met

----------
Reported composite z-score values follow for various compounds
biological target: Calmodulin-1 (Homo sapiens) (UniProt P0DP23); test: CALM1 binders on microarrays, EGTA buffer, profiling panel, biochemical, small-molecule microarray, Cy5-labelled CALM1 (AID 1111); settings: Cy5-CALM1 binding fluorescence, higher = more signal;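 note: labelled calmodulin applied in Tris saline Tween buffer holding calcium plus EGTA and DTT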
Enter a number only.

Example entries and their recorded answers appear below.
COMPOUND	RECORDED VALUE
CC(CCN1CCCCc2nc(C)c(C)cc21)=NOC(C)CN1CCCCc2nc(C)c(C)cc21 (configuration not stated)	0.447
CC(C)=CCCC(C)=CCON=C1[C@H]2CCn3c(=O)n(Cc4cc5c(cc4Cl)OCO5)c(=O)n3[C@H]2[C@H](O)[C@@H]2O[C@H]12	-0.175
COCCOC(=O)N1C(=O)[C@@]2(c3cc(C#Cc4ccc(OC)cc4)ccc31)[C@H](c1ccc(O)cc1)N1[C@H](c3ccccc3)[C@H](c3ccccc3)OC(=O)[C@H]1[C@@H]2C(N)=O	1.06
CC(C)=CCCC(C)=CCON=C1[C@H]2CCn3c(=O)n(C)c(=O)n3[C@H]2[C@H](O)[C@@H]2O[C@H]12	-0.257
N#Cc1ccc(NN2C(C(O)c3cc(C(F)(F)F)cc(C(F)(F)F)c3)C=CC3C(=O)N(c4ccccc4)C(=O)C32)cc1 (configuration not stated)	2.44
CO[C@H]([C@@H](C)[C@H](OC)c1ccccc1)[C@H](C)[C@@H](OC)[C@H](C)C(C)=O	-1.1
O=C1c2ccccc2[C@@]2(Cc3ccccc3N(C3CC3)C2=O)[C@H](c2ccc(CO)cc2)N1Cc1ccccc1C(F)(F)F	-0.48
CC(=O)OC[C@H]1O[C@H](CCON=C(C)CCN2CCc3nc(-c4ccccc4)c(-c4ccccc4)cc3C2)C=C[C@@H]1OC(C)=O	-0.205

**Q:** Read the entry CCOC(=O)[C@H](Cc1ccccc1)NC(=O)CCC1CC(OC(=O)NCc2ccc3c(c2)OCO3)CC2(CCCC(COC(=O)NCC(c3ccccc3)c3ccccc3)O2)O1 (some centres not stated) and write its reported composite z-score.
**A:** -0.198

**Q:** Read the entry COCCOC(=O)N1C(=O)[C@@]2(c3cc(C#CCNC(N)=O)ccc31)[C@H](c1ccc(O)cc1)N1[C@H](c3ccccc3)[C@H](c3ccccc3)OC(=O)[C@H]1[C@@H]2C(=O)N1CCCCCCC1 and write its reported composite z-score.
**A:** -0.0989

**Q:** Read the entry CS(=O)(=O)CCOC(=O)C1=CC(CCCO)=CC(c2cccs2)N(Cc2cccc(OC(F)(F)F)c2)C=C1C(=O)OCCS(C)(=O)=O (configuration not stated) and write its reported composite z-score.
**A:** 2.31

**Q:** Read the entry CO[C@@H]1COC(=O)[C@H](C)NC(=O)[C@@H](C)COC(=O)CCC[C@H]1C and write its reported composite z-score.
**A:** -0.485

**Q:** Read the entry CN1C(=O)C2C=CC(C(O)C(c3ccccc3)c3ccccc3)N(NC(=O)OC(C)(C)C)C2C1=O (configuration not stated) and write its reported composite z-score.
**A:** 2.75

**Q:** Read the entry O=C1O[C@@H](c2ccccc2)[C@@H](c2ccccc2)N2[C@@H](c3ccc(OCCO)cc3)[C@]3(C(=O)Nc4ccc(C#CCCO)cc43)[C@@H](C(=O)N3CCCCCCC3)[C@H]12 and write its reported composite z-score.
**A:** 2.62

----------
Reported z-score values follow for various compounds
test: osmotic lysis modulators in infected erythrocytes, primary screen, PSAC antagonist project, cell-based, P. falciparum Indochina, OD700, 3 h (AID 1156); details: higher = more signal, called active from +8 up or from −8 down
Calls of active or inactive are those of the source.

CPD SMILES	z-score
C=CCN1C(=O)[C@]2(O[C@H](CCn3cc(CCO)nn3)[C@@H]([Si](C)(C)c3ccc(OC)cc3)[C@@H]2C)c2cc(N3CCOC3=O)ccc21	-0.5 (inactive)
CC(=O)OC[C@H]1O[C@H](C#CCCCc2ccccc2)C=C[C@@H]1OC(C)=O	-0.213 (inactive)
O=C1O[C@@H](c2ccccc2)[C@@H](c2ccccc2)N2[C@@H](c3ccccc3OCCO)[C@]3(C(=O)Nc4ccc(C#CCCO)cc43)[C@@H](C(=O)O)[C@H]12	0.152 (inactive)

Pending compound:
**Q:** Read the entry CC(CCC(=O)OC[C@H]1O[C@H](C#Cc2ccccc2)C=C[C@@H]1Oc1ccc(C)cc1)=NOC[C@@H](O)[C@H]1O[C@@H]2OC(C)(C)O[C@@H]2[C@H]1O and write its reported z-score.
**A:** 0.0766 (inactive)
